# Assayed system: CYP1A2 (Homo sapiens, UniProt P05177)
# Sequence (P05177 whole entry): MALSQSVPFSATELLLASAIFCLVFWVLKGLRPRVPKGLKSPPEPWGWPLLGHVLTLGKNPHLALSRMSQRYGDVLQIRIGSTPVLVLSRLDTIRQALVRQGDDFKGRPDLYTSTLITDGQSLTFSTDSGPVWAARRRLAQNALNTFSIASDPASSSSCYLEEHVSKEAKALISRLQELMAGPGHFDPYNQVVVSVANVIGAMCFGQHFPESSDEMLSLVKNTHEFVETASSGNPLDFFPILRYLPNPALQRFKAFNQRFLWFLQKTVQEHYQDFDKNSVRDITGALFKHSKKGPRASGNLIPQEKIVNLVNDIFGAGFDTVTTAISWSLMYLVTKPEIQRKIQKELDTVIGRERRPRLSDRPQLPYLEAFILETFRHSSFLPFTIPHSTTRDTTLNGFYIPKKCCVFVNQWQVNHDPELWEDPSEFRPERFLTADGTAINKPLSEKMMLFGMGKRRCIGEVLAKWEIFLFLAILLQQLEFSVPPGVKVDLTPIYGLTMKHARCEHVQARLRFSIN
# Assay remarks: Inhibition of CYP1A2 (unknown origin) at 10 uM relative to control
# Format: ADME
Measured metric: inhibition at 10 µM (%)
Numeric only. Scale: %

Summary for this compound, `Cc1nn(C(C)(C)C)c2nc(C3CC3)cc(C(=O)N3CCOc4ccncc43)c12` : inhibition at 10 µM is 55.1
